// provenance: ChEMBL document CHEMBL4610027

system: Mycobacterium tuberculosis; test: Antimycobacterial activity against Mycobacterium tuberculosis H37Rv incubated for 6 days by resazurin dye-based colorimetric method; format: functional; details: 144 h
MEASUREMENT TYPE: MIC (µg/mL)
Give a bare numeral; the unit µg/mL is implied.

Exercise: I have this molecule here, CCCCC(=O)Nc1cccc(C(=O)NCCCNc2cccnc2)c1 , and I need its recorded MIC.
Solution: 100

Exercise: Another: O=C(CCCC[C@@H]1SC[C@@H]2NC(=O)N[C@@H]21)NCc1cn(-c2ccccc2)nc1-c1ccccc1
Solution: 100

Exercise: Another: NS(=O)(=O)[C@H]1CC=C(CNC(=O)CCCc2c[nH]c3ccccc23)S1
Solution: 50

Exercise: Another: C[C@@H](OC(=O)CCCNC1=NS(=O)(=O)c2ccccc21)C(=O)c1c[nH]c2ccccc12
Solution: 100

Exercise: Another: COCC(=O)Nc1c(C(=O)OC)n(CCC(C)C)c2ncc(N[C@@H](C)C(C)(C)O)cc12
Solution: 50

Exercise: Another: CC(=O)C1=C(O)[C@@H]2[C@H]3c4c[nH]c5cccc(c45)C[C@H]3C(C)(C)N2C1=O
Solution: 100

###

assay: Cytotoxicity against mouse MHS cells assessed as cell death at 100 ug/ml incubated for 48 hrs by crystal violet staining based spectrophotometric analysis relative to control
For each entry below, report its Activity value.
Give a bare numeral; the unit % is implied.

Exercise: I have this compound here, CCCCC(=O)Nc1cccc(C(=O)NCCCNc2cccnc2)c1 , and I need its recorded Activity.
Solution: 21.4

Exercise: Another: CC(=O)C1=C(O)[C@@H]2[C@H]3c4c[nH]c5cccc(c45)C[C@H]3C(C)(C)N2C1=O [CYCLOPIAZONIC ACID]
Solution: 50.8

Exercise: Another: CCC[C@H](C)NC(=O)CSc1nc2cc(S(=O)(=O)Nc3ccccc3OC)ccc2o1
Solution: 39.5

Exercise: Another: NS(=O)(=O)[C@H]1CC=C(CNC(=O)CCCc2c[nH]c3ccccc23)S1
Solution: 12.9

Exercise: Another: O=C(CCCC[C@@H]1SC[C@@H]2NC(=O)N[C@@H]21)NCc1cn(-c2ccccc2)nc1-c1ccccc1
Solution: 30

Exercise: Another: COCC(=O)Nc1c(C(=O)OC)n(CCC(C)C)c2ncc(N[C@@H](C)C(C)(C)O)cc12
Solution: 19.8

Exercise: Another: C[C@@H](OC(=O)CCCNC1=NS(=O)(=O)c2ccccc21)C(=O)c1c[nH]c2ccccc12
Solution: 31.6

###

experiment: Inhibition of Bacillus cereus Ca2+ ATPase
MEASUREMENT TYPE: pIC50
Recall that pIC50 is obtained by taking minus log10 of the concentration measured in molar.

Exercise: I have this compound here, CC(=O)C1=C(O)[C@@H]2[C@H]3c4c[nH]c5cccc(c45)C[C@H]3C(C)(C)N2C1=O , and I need its recorded pIC50.
Solution: 5.40

###

assay: Inhibition of calcium stimulated Mycobacterium tuberculosis H37Ra CtpF ATPase activity using Na2ATP as substrate preincubated for 30 mins followed by substrate addition and measured after 30 mins by colorimetric analysis
For each entry below, report its pIC50 value.
Recall that pIC50 is obtained by taking minus log10 of the concentration measured in molar.

Exercise: I have this molecule here, CC(=O)C1=C(O)[C@@H]2[C@H]3c4c[nH]c5cccc(c45)C[C@H]3C(C)(C)N2C1=O , and I need its recorded pIC50.
Solution: 5.14

Exercise: Another: O=C(CCCC[C@@H]1SC[C@@H]2NC(=O)N[C@@H]21)NCc1cn(-c2ccccc2)nc1-c1ccccc1
Solution: 5.39

Exercise: Another: NS(=O)(=O)[C@H]1CC=C(CNC(=O)CCCc2c[nH]c3ccccc23)S1
Solution: 5.36

Exercise: Another: CCC[C@H](C)NC(=O)CSc1nc2cc(S(=O)(=O)Nc3ccccc3OC)ccc2o1
Solution: 4.44

Exercise: Another: C[C@@H](OC(=O)CCCNC1=NS(=O)(=O)c2ccccc21)C(=O)c1c[nH]c2ccccc12
Solution: 4.93

Exercise: Another: COCC(=O)Nc1c(C(=O)OC)n(CCC(C)C)c2ncc(N[C@@H](C)C(C)(C)O)cc12
Solution: 5.10

Exercise: Another: CCCCC(=O)Nc1cccc(C(=O)NCCCNc2cccnc2)c1
Solution: 5.38

###

test system: Mycobacterium tuberculosis; assay: Antimycobacterial activity against Mycobacterium tuberculosis H37Rv assessed as inhibition of bacterial growth at MIC incubated for 21 days by colony formation assay relative to control; assay type: functional
For each entry below, report its inhibition (INH) value.
Give a bare numeral; the unit % is implied.

Exercise: I have this compound here, O=C(CCCC[C@@H]1SC[C@@H]2NC(=O)N[C@@H]21)NCc1cn(-c2ccccc2)nc1-c1ccccc1 , and I need its recorded inhibition (INH).
Solution: 29.5

Exercise: Another: CC(=O)C1=C(O)[C@@H]2[C@H]3c4c[nH]c5cccc(c45)C[C@H]3C(C)(C)N2C1=O
Solution: 29.9

Exercise: Another: COCC(=O)Nc1c(C(=O)OC)n(CCC(C)C)c2ncc(N[C@@H](C)C(C)(C)O)cc12
Solution: 60.7

Exercise: Another: C[C@@H](OC(=O)CCCNC1=NS(=O)(=O)c2ccccc21)C(=O)c1c[nH]c2ccccc12
Solution: 37.3

Exercise: Another: CCCCC(=O)Nc1cccc(C(=O)NCCCNc2cccnc2)c1
Solution: 52.9

Exercise: Another: NS(=O)(=O)[C@H]1CC=C(CNC(=O)CCCc2c[nH]c3ccccc23)S1
Solution: 64

###

test: Hemolytic activity against human erythrocytes assessed as hemolysis at 100 ug/ml incubated for 2 hrs by spectrophotometric analysis; type: ADME, cell-based, Erythrocyte; settings: read-out: Activity
Consider the cut-off 1%. If the recorded hemolysis at 2 h, 100 ug/ml is strictly smaller, the label is 1.0; if not, the label is 0.0.

Exercise: Determine if CC(=O)C1=C(O)[C@@H]2[C@H]3c4c[nH]c5cccc(c45)C[C@H]3C(C)(C)N2C1=O [CYCLOPIAZONIC ACID] shows hemolysis at 2 h, 100 ug/ml strictly lower than 1%.
Solution: 0.0

Exercise: Another: C[C@@H](OC(=O)CCCNC1=NS(=O)(=O)c2ccccc21)C(=O)c1c[nH]c2ccccc12
Solution: 0.0

Exercise: Another: O=C(CCCC[C@@H]1SC[C@@H]2NC(=O)N[C@@H]21)NCc1cn(-c2ccccc2)nc1-c1ccccc1
Solution: 0.0

Exercise: Another: COCC(=O)Nc1c(C(=O)OC)n(CCC(C)C)c2ncc(N[C@@H](C)C(C)(C)O)cc12
Solution: 1.0

Exercise: Another: CCCCC(=O)Nc1cccc(C(=O)NCCCNc2cccnc2)c1
Solution: 0.0

Exercise: Another: NS(=O)(=O)[C@H]1CC=C(CNC(=O)CCCc2c[nH]c3ccccc23)S1
Solution: 0.0

###

assay: Octanol/water partition coefficient, log P of the compound; format: physicochemical
For each entry below, report its logP value.
Write the value as a bare number.

Exercise: I have this compound here, CC(=O)C1=C(O)[C@@H]2[C@H]3c4c[nH]c5cccc(c45)C[C@H]3C(C)(C)N2C1=O , and I need its recorded logP.
Solution: 2.21

Exercise: Another: COCC(=O)Nc1c(C(=O)OC)n(CCC(C)C)c2ncc(N[C@@H](C)C(C)(C)O)cc12
Solution: 3.32

Exercise: Another: CCC[C@H](C)NC(=O)CSc1nc2cc(S(=O)(=O)Nc3ccccc3OC)ccc2o1
Solution: 4.08

Exercise: Another: CCCCC(=O)Nc1cccc(C(=O)NCCCNc2cccnc2)c1
Solution: 2.91

Exercise: Another: O=C(CCCC[C@@H]1SC[C@@H]2NC(=O)N[C@@H]21)NCc1cn(-c2ccccc2)nc1-c1ccccc1
Solution: 3.34

Exercise: Another: NS(=O)(=O)[C@H]1CC=C(CNC(=O)CCCc2c[nH]c3ccccc23)S1
Solution: 1.68

Exercise: Another: C[C@@H](OC(=O)CCCNC1=NS(=O)(=O)c2ccccc21)C(=O)c1c[nH]c2ccccc12
Solution: 1.82
